Reference source: PubChem BioAssay (Tox21)

assay: qHTS RealTime-Glo MT Cell Viability Assay in HEK293 cells - 40 hour (AID 1224874); conditions: RealTime-Glo luminescence; also: potency is read from the fitted curve at half-maximal effect; nearly all actives have a fitted effect of over 50% in size
Records with an inconclusive call do not appear. Active and inactive are the calls of the source. Calls follow the shape of the dose curve; as a rule, active = well fitted cell-killing curve with a large enough effect in the repeat runs; inconclusive = weak or mixed curves, or effect the other way; inactive = flat fitted curve, though single readings scatter.
Recorded measurements of Potency, one per entry
endpoint_name: Potency

molecule: NNc1nc(-c2ccc(N)cc2)cs1
measured: 21.9 µM (active)
--
molecule: CC[C@@]1(O)C(=O)OCc2c1cc1n(c2=O)Cc2c-1nc1ccccc1c2/C=N/OC(C)(C)C
measured: 0.0239 µM (active)
--
molecule: CC(C)n1nc(-c2cc3cc(O)ccc3[nH]2)c2c(N)ncnc21
measured: 0.19 µM (active)
--
molecule: CC(C)(C)CC(C)(C)c1ccc(O)c(Cc2ccc(Cl)cc2Cl)c1
measured: 23.9 µM (active)
--
molecule: OCCN1CCN(CC/C=C2/c3ccccc3Sc3ccc(C(F)(F)F)cc32)CC1
measured: 19 µM (active)
--
molecule: O=C(NOCC1CC1)c1ccc(F)c(F)c1Nc1ccc(I)cc1Cl
measured: 23.9 µM (active)
--
molecule: CCCCCCC[N+](CC)(CC)CCCCc1ccc(Cl)cc1
measured: 1.9 µM (active)
--
molecule: C=CC(=O)OCCn1c(=O)n(CCOC(=O)C=C)c(=O)n(CCOC(=O)C=C)c1=O
measured: 11 µM (active)
--
molecule: CCN1/C(=C/C=C/c2sc3ccccc3[n+]2CC)Sc2ccccc21
measured: 0.0585 µM (active)
--
molecule: CCCCCCCCn1sc(Cl)c(Cl)c1=O
measured: 3.47 µM (active)
--
molecule: [O-][n+]1ccccc1SSc1cccc[n+]1[O-]
measured: 1.17 µM (active)
--
molecule: CC(C)(C)NC(=O)[C@@H]1C[C@@H]2CCCC[C@@H]2CN1C[C@@H](O)[C@H](Cc1ccccc1)NC(=O)[C@H](CC(N)=O)NC(=O)c1ccc2ccccc2n1
measured: 17.6 µM (active)
--
molecule: CCC(C)Nc1ccc(NC(C)CC)cc1 (stereo not given)
measured: 3.97 µM (active)
--
molecule: O=C1CCCc2c1cc1ccc3cccc4ccc2c1c34
measured: 9.89 µM (active)
--
molecule: CCN(Cc1cccnc1)C(=O)c1cccc(Cl)c1[C@]1(C)C(=O)N(Cc2ccc(OC)cc2OC)c2ccc(Cl)cc21
measured: 20.4 µM (active)
--
molecule: N#CSc1ccc(N)c([N+](=O)[O-])c1
measured: 49.3 µM (active)
--
molecule: N=C1C=CC(=C(c2ccc(N)cc2)c2ccc(N)cc2)C=C1
measured: 1.95 µM (active)
--
molecule: CCCCc1oc2ccc(NS(C)(=O)=O)cc2c1C(=O)c1ccc(OCCCN(CCCC)CCCC)cc1
measured: 8.49 µM (active)
--
molecule: CCCCCCCC[N+](CCCCCCCC)(CCCCCCCC)CCCCCCCC
measured: 2.18 µM (active)
--
molecule: CCCCCCCCCCCC(=O)NCCCN(C)C
measured: 34.7 µM (active)
--
molecule: Oc1ccc(C2(c3ccc(O)cc3)CC3CC2C2CCCC32)cc1 (stereo not given)
measured: 41.9 µM (active)
--
molecule: NC(=NCCCCCCN=C(N)/N=C(\N)Nc1ccc(Cl)cc1)/N=C(\N)Nc1ccc(Cl)cc1
measured: 6.88 µM (active) [middle of 5 runs]
--
molecule: COc1ccc(C(=O)/C(Br)=C\C(=O)O)cc1
measured: 34.7 µM (active)
--
molecule: CCCC(c1cc(C(C)(C)C)c(O)cc1C)c1cc(C(C)(C)C)c(O)cc1C
measured: 17.6 µM (active)
--
molecule: [Cl][Au]([Cl])[Cl]
measured: 3.09 µM (active)
--
molecule: CCCCCCCCCCCCc1ccc(O)cc1
measured: 38.9 µM (active)
--
molecule: CCCCCCCCOc1ccccc1C(=O)Nc1ccc(C(=O)OCC[N+](C)(CC)CC)cc1
measured: 21.3 µM (active)
--
molecule: Oc1ccc2cc(SSc3ccc4cc(O)ccc4c3)ccc2c1
measured: 55 µM (active)
--
molecule: Cc1cc(C2CCCCC2)n(O)c(=O)c1
measured: 1.69 µM (active)
--
molecule: O=C(OCC(COC(=O)c1ccccc1)(COC(=O)c1ccccc1)COC(=O)c1ccccc1)c1ccccc1
measured: 48.9 µM (active)
--
molecule: OC1(c2ccc(Cl)c(C(F)(F)F)c2)CCN(CCCC(c2ccc(F)cc2)c2ccc(F)cc2)CC1
measured: 9.52 µM (active)
--
molecule: COc1cccc2c1C(=O)c1c(O)c3c(c(O)c1C2=O)C[C@@](O)(C(=O)CO)C[C@@H]3O[C@H]1C[C@H](N)[C@H](O[C@@H]2CCCCO2)[C@H](C)O1
measured: 0.19 µM (active)
--
molecule: ON=C1CCCC1
measured: 22.6 µM (active)
--
molecule: COc1cc(-c2nc(NC(=O)c3cc4cc(C)cc(C)c4n3CC(=O)O)sc2CCC2CCCCC2)c(OC)cc1Cl
measured: 22.5 µM (active)
--
molecule: CCc1cc(Cc2cc(CC)c(N)c(CC)c2)cc(CC)c1N
measured: 27.5 µM (active)
